target: cGMP-stimulated PDE II (Homo sapiens); construct: cytosolic cGMP-stimulated PDE II isoenzyme from human myocardium; assay: Test for PDE activity, inhibition of cytosolic cGMP-stimulated PDE II from human myocardium; settings: human myocardium; 1 μM cAMP or cGMP substrate, 25° C., pH 7.5
Sequence (O00408 1-920 isoform O00408-2): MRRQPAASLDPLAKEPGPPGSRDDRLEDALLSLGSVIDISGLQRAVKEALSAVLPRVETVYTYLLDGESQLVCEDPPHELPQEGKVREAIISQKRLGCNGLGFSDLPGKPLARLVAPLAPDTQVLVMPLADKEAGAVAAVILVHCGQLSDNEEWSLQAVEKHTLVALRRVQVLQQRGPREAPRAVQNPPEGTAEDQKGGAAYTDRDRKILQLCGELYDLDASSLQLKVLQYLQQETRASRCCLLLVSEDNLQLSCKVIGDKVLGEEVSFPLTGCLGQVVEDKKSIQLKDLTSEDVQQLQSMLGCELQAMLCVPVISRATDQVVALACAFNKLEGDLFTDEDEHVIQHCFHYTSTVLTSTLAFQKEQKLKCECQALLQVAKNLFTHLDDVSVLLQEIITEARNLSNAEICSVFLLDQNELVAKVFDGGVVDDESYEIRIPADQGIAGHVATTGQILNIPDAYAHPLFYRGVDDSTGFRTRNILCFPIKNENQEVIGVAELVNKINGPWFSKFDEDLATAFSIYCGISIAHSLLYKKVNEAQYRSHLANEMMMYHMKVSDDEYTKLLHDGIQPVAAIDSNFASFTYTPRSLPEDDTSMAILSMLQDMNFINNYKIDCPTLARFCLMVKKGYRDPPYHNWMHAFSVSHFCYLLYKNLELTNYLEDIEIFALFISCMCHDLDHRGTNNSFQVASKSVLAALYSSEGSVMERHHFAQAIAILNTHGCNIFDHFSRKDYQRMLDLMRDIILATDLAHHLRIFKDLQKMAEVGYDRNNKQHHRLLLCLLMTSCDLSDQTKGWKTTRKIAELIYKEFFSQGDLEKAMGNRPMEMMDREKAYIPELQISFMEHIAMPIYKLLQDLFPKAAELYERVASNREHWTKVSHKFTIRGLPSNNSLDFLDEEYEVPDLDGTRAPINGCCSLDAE
readoutName: IC50
Hey, just the number and the unit after it is fine.

**Query** For CCCCCC[C@H]([C@H](C)O)n1cnc2c(N)ncnc21 (relative stereo) [EHNA, erythro-9-(2-hydroxy-3-nonyl)-adenine] , what is its reported IC50?
**Result** 800 nM
